The origin of these recorded values is patent US8557816B2.

tested.target: AuroraB (Homo sapiens)
Construct: 20 μL of AuroraB FL H is for a final volume of 41 μL; His
Sequence (Q96GD4 whole entry): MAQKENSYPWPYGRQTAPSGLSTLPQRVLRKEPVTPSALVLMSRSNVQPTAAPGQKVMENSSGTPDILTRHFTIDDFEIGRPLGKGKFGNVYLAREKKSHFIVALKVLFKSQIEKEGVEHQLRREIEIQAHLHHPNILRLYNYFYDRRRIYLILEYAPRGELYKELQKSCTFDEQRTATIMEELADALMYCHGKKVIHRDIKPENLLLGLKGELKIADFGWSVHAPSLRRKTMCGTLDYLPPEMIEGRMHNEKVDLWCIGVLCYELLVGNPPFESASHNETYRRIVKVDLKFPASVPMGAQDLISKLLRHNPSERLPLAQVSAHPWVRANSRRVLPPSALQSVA
assay.procedure: AuroraB Homogeneous Time Resolved Fluorescent (HTRF) kinase assay
Format: biochemical
run.conditions: average; read-out: AurB_IC50_IP (uM Avg)
Note to self: use rule met only for IC50 readings below 0.02 µM; a reading exactly at 0.02 µM still gets rule not met.

Identify whether the compound COc1cnc2c(Oc3ccc(Nc4nnc(-c5cccc6[nH]ccc56)c5ccccc45)cc3)ccnc2c1 records IC50 below 0.02 µM.
rule met

One more compound: Fc1cc(F)c2c(Sc3ccc(Nc4nnc(-c5ccccc5)c5ccccc45)cc3)ccnc2c1
rule not met

What do we get for COc1cnc2c(Sc3ccc(Nc4nnc(-c5cc(C)cs5)c5ccccc45)cc3F)ccnc2c1 ?
rule not met

Now the same for COc1cnc2c(Sc3ccc(Nc4nnc(N5CCC(Cl)CC5)c5ccccc45)cc3)ccnc2c1
rule not met

# repeat for Brc1cnc2c(Oc3ccc(Nc4nnc(-c5ccccc5)c5ccccc45)cc3)ncnc2c1
rule not met

And the next one, COc1cnc2c(Oc3ccc(Nc4nnc(-c5cccc(C)n5)c5ccccc45)cn3)ccnc2c1 ?
rule met

CCc1cc(-c2cc(C)cs2)nnc1Nc1ccc(Oc2ccnc3cc(OC)cnc23)cc1 , same question.
rule met

Another: COc1cnc2c(Sc3ccc(Nc4nnc(N5CCCCC5)c5ccccc45)cc3)ccnc2c1
rule not met

What would you report for COc1ccc2ncnc(Oc3ccc(Nc4nnc(-c5ccc(Cl)cc5)c5ccccc45)cc3)c2c1 ?
rule not met

Can you check COc1cc2nccc(Oc3ccc(Nc4nnc(-c5cc(C)ccn5)c5ccccc45)cc3)c2cc1OC next?
rule not met

Repeat with c1ccc(-c2nnc(Nc3ccc(Oc4ccnc5ccc(N6CCOCC6)cc45)cc3)c3ccccc23)cc1
rule met

Do the same for COc1cnc2c(Oc3ccc(Nc4nnc(-c5ccc6sccc6c5)c5ccccc45)cc3)ccnc2c1 please
rule met

Clc1ccc(-c2nnc(Nc3ccc(Sc4ccnc5ccoc45)cc3)c3ccccc23)nc1 ?
rule met

Next record, please: COc1cnc2c(Oc3ccc(Nc4nnc(-c5c(C)nn(C)c5C)c5ccccc45)cc3)ccnc2c1
rule not met

Next up: COc1cnc2c(Sc3ccc(Nc4nnc(N5CCN6CCCC[C@@H]6C5)c5ccccc45)cc3)ccnc2c1 [compound 580]
rule met

Same read-out for COCCOc1ccc(-c2nnc(Nc3ccc(Sc4ccnc5cc(OC)cnc45)cc3)c3ccccc23)cc1OCCOC ?
rule met
